# Tested on: Vero E6
# Assay Notes: cell viability relative to DMSO; higher = less toxic
# Assay Conditions: 72 h; 10 nM
Entries and their cell viability
Please state the figure in %; there is no need to write the unit.

Consider the molecule shown here: O=C(O)c1cc(=O)c2c(OCC(O)COc3cccc4oc(C(=O)O)cc(=O)c34)cccc2o1 What is its recorded cell viability?
101

Which cell viability reading was recorded for the molecule CCOc1nc2cccc(C(=O)O)c2n1Cc1ccc(-c2ccccc2-c2noc(=O)[nH]2)cc1 ?
102

----------
We begin with a simple list: items and their reported cell viability.
# Tested on: U2OS
# Assay Notes: cell viability relative to DMSO; higher = less toxic
# Assay Conditions: 72 h; 10000 nM
Give a bare numeral; the unit % is implied.

Here are 4 molecules together with their reported answers.
Molecule	Readout Value
CCCCOc1ccc(OCCCN2CCOCC2)cc1	99.3
CCCC[C@@H](C=O)NC(=O)[C@H](CC(C)C)NC(=O)OCc1ccccc1	96.4
Nc1nc(F)nc2c1ncn2[C@@H]1O[C@H](CO)[C@@H](O)[C@@H]1O	103
c1ccc2c(CCNc3ccc(Nc4ccncc4)cc3)c[nH]c2c1	52.1

We now examine a further molecule.
Look up cell viability: c1ccc(CCCCN2CCC(c3ccccc3)CC2)cc1
84.6

----------
Catalogue of molecules with associated SARS-CoV-2 infection rate
# Test system: A549-ACE2 infected with SARS-CoV-2
# Assay Notes: SARS-CoV-2 infection rate relative to DMSO; higher = more infection
# Assay Conditions: 30 µM; 24 h
Kindly provide the numeric value in % only, without the unit symbol.

Below, 3 molecules whose answers are already recorded.
Molecule	Measurement Target	Quantity Name	Units Text	Readout Value
COc1ccc(/C=C/C(=O)/C=C(O)/C=C/c2ccc(OC)c(OC)c2)cc1OC	A549-ACE2 infected with SARS-CoV-2	SARS-CoV-2 infection rate	%	25
c1ccc2c(CCNc3ccc(Nc4ccncc4)cc3)c[nH]c2c1	A549-ACE2 infected with SARS-CoV-2	SARS-CoV-2 infection rate	%	43
FC(F)(F)c1cc(CO[C@H]2CCCN[C@H]2c2ccccc2)cc(C(F)(F)F)c1	A549-ACE2 infected with SARS-CoV-2	SARS-CoV-2 infection rate	%	42

Below: the item to evaluate.
SARS-CoV-2 infection rate for C[S+]([O-])CCCCN=C=S (centres undefined) ?
18

----------
# Test system: Caco-2
# Assay Notes: cell viability relative to DMSO; higher = less toxic
# Assay Conditions: 72 h; 10 nM
Quantity Name: cell viability

See these solved cases before continuing.
Compound	cell viability
COc1cc2c(NC3CCN(C4CCCCC4)CC3)nc(N3CCCN(C(C)C)CC3)nc2cc1OCCCN1CCCCC1	97.6%
CN1C(=O)N(C)C2C1N(C)C(=O)N2C (centres undefined)	106%
CCOC(=O)[C@@H](C)Oc1ccc(Oc2nc3ccc(Cl)cc3o2)cc1	100%

Kindly review the next compound as well.
Quick one: cell viability of C[C@]12CCC(=O)C(O)=C1CC[C@@H]1[C@@H]2CC[C@]2(C)C(=O)CC[C@@H]12 ?
96.9%

----------
# Test system: Calu-3
# Assay Notes: drug sensitivity score (DSS) for viability; higher = more toxic; extreme values may be limits of the assay
# Assay Conditions: 72 h
Quantity Name: drug sensitivity score
I only need the number, thanks.

Worked cases, answers included:
Smi	Measurement Target	drug sensitivity score
C[C@@]12C[C@@]3(O)O[C@@H](O1)[C@]1(COC(=O)c4ccccc4)[C@H]3C[C@@]12O[C@@H]1O[C@H](CO)[C@@H](O)[C@H](O)[C@H]1O	Calu-3	0
O=C(Nc1ccncc1)C(=O)c1cn(Cc2ccc(Cl)cc2)c2ccccc12	Calu-3	0
COc1cc2c(NC3CCN(C4CCCCC4)CC3)nc(N3CCCN(C(C)C)CC3)nc2cc1OCCCN1CCCCC1	Calu-3	0.6

Turning now to a further compound:
Consider the compound Cc1cnc(CNC(=O)c2c(=O)c3ccc(N4CCCN(C)CC4)nc3n3c2sc2ccccc23)cn1 and give its measured drug sensitivity score.
0.3
